- TARGET_DESC: NaV1.3 (Homo sapiens)
- Construct: expressed in transfected cells; host or cells: HEK293
- EXPERIMENT_SUMMARY: VIPR optical membrane potential assay with electrical stimulation, NaV1.3
- Assay type: cell-based
- SETTINGS: Table 9, NaV 1.3 receptors
pIC50: −log10 of the molar value.
MEASURED_METRIC: pIC50

Use the examples below as a reference point.
> print(dat)
                                   compound       reading
1  CC(C)N(C(=O)c1cnc(N2CCCCC2)nc1-c1ccccc1Cl)C1CCSC1 (centres unmarked)        < 5.00
2  O=C(c1cnc(N2CCSCC2)nc1-c1ccccc1F)N(Cc1cccc(-c2ccncc2)c1)C1CC1  5.00 to 5.70
3  CCN(Cc1cccc(C)c1)C(=O)c1cnc(NC2CCCC2)nc1-c1ccc(C#N)cc1        < 5.00
4  CC(C)N(Cc1ccccc1)C(=O)c1cnc(N2Cc3ccccc3C2)nc1-c1ccccc1F  5.00 to 5.70
5  Cc1cccc(CN(C(=O)c2cnc(N3CCOCC3)nc2-c2ccccc2F)C2CC2)c1        < 5.00
6  COCCCNc1ncc(C(=O)NCC2CCCCC2)c(-c2cccc(C)c2)n1        < 5.00
7  O=C(c1cnc(N2CCOCC2)nc1-c1ccccc1F)N(Cc1ccc(C(F)(F)F)cc1)C1CC1  5.00 to 5.70

Let us examine a further case.
In: // pIC50 lookup, key: CN1CCN(c2ncc(C(=O)N(Cc3ccncc3)C3CC3)c(-c3ccccc3F)n2)CC1
Out: < 5.00

* * *

Here the recorded IC50 is given for each entry.
- TARGET_DESC: NaV1.3 (Homo sapiens, UniProt Q9NY46)
- Construct: expressed in transfected cells; host or cells: HEK293
- Sequence (Q9NY46 whole entry): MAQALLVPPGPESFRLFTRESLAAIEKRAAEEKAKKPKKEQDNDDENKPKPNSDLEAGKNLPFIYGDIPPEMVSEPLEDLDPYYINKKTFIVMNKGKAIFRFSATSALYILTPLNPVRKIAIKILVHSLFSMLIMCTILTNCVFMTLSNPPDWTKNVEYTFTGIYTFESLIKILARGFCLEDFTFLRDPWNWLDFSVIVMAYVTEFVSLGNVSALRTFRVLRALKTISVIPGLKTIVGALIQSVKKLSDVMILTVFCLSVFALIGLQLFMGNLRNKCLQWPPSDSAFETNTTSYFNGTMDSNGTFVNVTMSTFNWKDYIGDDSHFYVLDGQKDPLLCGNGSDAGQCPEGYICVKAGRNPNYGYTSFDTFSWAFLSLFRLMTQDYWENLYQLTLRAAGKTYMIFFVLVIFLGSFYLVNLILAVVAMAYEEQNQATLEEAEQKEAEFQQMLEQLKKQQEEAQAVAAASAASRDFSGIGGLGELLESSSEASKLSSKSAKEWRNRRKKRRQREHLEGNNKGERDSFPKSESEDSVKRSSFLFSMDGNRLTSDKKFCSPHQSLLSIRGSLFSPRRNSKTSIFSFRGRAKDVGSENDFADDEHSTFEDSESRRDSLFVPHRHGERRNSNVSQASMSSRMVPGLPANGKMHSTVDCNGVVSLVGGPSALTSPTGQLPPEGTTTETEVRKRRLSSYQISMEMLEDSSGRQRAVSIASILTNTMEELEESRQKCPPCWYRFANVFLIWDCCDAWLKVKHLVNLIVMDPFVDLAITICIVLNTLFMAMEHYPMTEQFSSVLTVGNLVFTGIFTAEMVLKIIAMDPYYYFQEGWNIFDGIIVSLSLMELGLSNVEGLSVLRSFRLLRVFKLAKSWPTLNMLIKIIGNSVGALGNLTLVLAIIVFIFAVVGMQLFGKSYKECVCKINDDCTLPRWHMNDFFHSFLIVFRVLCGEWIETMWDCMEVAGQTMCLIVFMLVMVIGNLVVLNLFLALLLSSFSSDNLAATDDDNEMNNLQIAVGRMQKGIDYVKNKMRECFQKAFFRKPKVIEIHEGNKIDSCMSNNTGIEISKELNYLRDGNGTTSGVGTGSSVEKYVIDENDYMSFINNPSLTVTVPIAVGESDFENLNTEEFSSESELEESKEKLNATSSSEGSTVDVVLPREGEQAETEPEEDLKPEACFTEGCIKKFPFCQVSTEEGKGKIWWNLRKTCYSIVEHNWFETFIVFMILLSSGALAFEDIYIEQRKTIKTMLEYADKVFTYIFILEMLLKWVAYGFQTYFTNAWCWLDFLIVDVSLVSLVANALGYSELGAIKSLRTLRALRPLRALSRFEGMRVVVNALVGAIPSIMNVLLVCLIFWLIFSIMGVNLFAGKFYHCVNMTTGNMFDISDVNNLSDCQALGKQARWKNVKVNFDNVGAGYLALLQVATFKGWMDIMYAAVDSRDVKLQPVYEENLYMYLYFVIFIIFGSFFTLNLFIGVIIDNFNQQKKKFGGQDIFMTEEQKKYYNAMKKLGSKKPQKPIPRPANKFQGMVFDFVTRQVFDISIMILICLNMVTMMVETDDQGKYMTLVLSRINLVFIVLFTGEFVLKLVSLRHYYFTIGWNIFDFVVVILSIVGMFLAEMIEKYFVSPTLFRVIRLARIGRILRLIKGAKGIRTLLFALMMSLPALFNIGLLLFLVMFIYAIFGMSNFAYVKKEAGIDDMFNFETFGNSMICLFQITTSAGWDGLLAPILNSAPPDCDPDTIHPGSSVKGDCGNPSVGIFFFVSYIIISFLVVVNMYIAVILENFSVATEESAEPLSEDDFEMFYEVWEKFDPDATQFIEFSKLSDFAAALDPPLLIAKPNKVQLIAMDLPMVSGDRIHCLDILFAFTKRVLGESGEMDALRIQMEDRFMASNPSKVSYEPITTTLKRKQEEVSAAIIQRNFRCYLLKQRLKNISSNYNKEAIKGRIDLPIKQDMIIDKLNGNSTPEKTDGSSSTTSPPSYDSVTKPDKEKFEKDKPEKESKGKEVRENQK
- EXPERIMENT_SUMMARY: VIPR optical membrane potential assay with electrical stimulation, NaV1.3
- Type: cell-based
- SETTINGS: Table 9, NaV 1.3 receptors

Use the examples below as a reference point.
> print(dat)
                                 mol.smiles                            target.desc     reading
1  CC(C)N(C(=O)c1cnc(N2CCCCC2)nc1-c1ccccc1F)c1cccc(N(C)C)c1  NaV1.3 (Homo sapiens, UniProt Q9NY46)  2 to 10 µM
2  CC(C)N(Cc1ccccc1)C(=O)c1cnc(Nc2ccc(F)cc2)nc1-c1ccccc1F  NaV1.3 (Homo sapiens, UniProt Q9NY46)     > 10 µM
3  COc1cccc(N(C(=O)c2cnc(N3CCOCC3)nc2-c2ccccc2F)C2CCCC2)c1  NaV1.3 (Homo sapiens, UniProt Q9NY46)  2 to 10 µM
4  COCCCNc1ncc(C(=O)N(Cc2ccccc2)C(C)C)c(-c2ccccc2F)n1  NaV1.3 (Homo sapiens, UniProt Q9NY46)     > 10 µM
5  O=C(c1cnc(N2CCOCC2)nc1-c1ccccc1F)N(Cc1ccc2c(c1)CCO2)C1CC1  NaV1.3 (Homo sapiens, UniProt Q9NY46)  2 to 10 µM
6  CCNc1ncc(C(=O)N(Cc2ccccc2)C(C)C)c(-c2ccccc2F)n1  NaV1.3 (Homo sapiens, UniProt Q9NY46)     > 10 µM
7  CC(C)N(Cc1ccccc1)C(=O)c1cnc(N2CCOCC2)nc1-c1ccc(C#N)cc1  NaV1.3 (Homo sapiens, UniProt Q9NY46)     > 10 µM

Let us examine a further case.
In: // IC50 lookup, key: O=C(NC1CC1)c1cnc(N2CCOCC2)nc1-c1ccccc1F
Out: > 10 µM

* * *

- TARGET_DESC: CaV2.2 (Homo sapiens)
- EXPERIMENT_SUMMARY: VIPR optical membrane potential assay with electrical stimulation, CaV2.2
- SETTINGS: Table 9, CaV 2.2 receptors
pIC50: −log10 of the molar value.
Here the recorded pIC50 is given for each entry.

Use the examples below as a reference point.
> print(dat)
                                   compound       reading
1  COc1cccc(N(C(=O)c2cnc(N3CCC4CCCCC4C3)nc2-c2ccccc2F)C2CC2)c1 (stereo not shown)  5.00 to 5.70
2  COCCCNC(=O)c1cnc(NC2CCCCC2)nc1-c1ccc(-c2ccccc2)cc1        < 5.00
3  COc1cccc(N(C(=O)c2cnc(N3CCSCC3)nc2-c2ccccc2F)C(C)C)c1  5.00 to 5.70
4  O=C(c1cnc(N2CCOCC2)nc1-c1ccccc1F)N(Cc1ccccc1)C1CC1  5.00 to 5.70
5  CC(C)N(C(=O)c1cnc(N2CCC3CCCCC3C2)nc1-c1ccccc1F)c1ccccc1 (stereo not shown)  5.00 to 5.70
6  O=C(c1cnc(N2CCSCC2)nc1-c1ccccc1F)N(Cc1ccccc1)C1CCCC1  5.00 to 5.70
7  N#Cc1ccc(-c2nc(NCCc3cccc(F)c3)ncc2C(=O)NCc2ccccc2)cc1        < 5.00
8  CC(C)N(Cc1ccccc1)C(=O)c1cnc(N2CCOCC2)nc1-c1cc(F)cc(F)c1  5.00 to 5.70

In: Report pIC50 for COc1cccc(CN(C(=O)c2cnc(N3Cc4ccccc4C3)nc2-c2ccccc2F)C(C)C)c1 tested on CaV2.2 (Homo sapiens).
Out: > 5.70

In: Report pIC50 for CC(C)N(Cc1ccccc1)C(=O)c1cnc(N2CCOCC2)nc1-c1cccc(/C=C/C(=O)O)c1 tested on CaV2.2 (Homo sapiens).
Out: < 5.00

In: Report pIC50 for COc1ccc(CCN(C)c2ncc(C(=O)N3CCCC3)c(-c3ccc(C#N)cc3)n2)cc1OC tested on CaV2.2 (Homo sapiens).
Out: < 5.00

In: Report pIC50 for COc1cccc(N(C(=O)c2cnc(N3CCCCC3)nc2-c2ccccc2Cl)C(C)C)c1 tested on CaV2.2 (Homo sapiens).
Out: 5.00 to 5.70

In: Report pIC50 for CC(C)N(C(=O)c1cnc(N2CCOCC2)nc1-c1ccccc1F)C1CCSC1 (stereo not shown) tested on CaV2.2 (Homo sapiens).
Out: < 5.00

* * *

Here the recorded IC50 is given for each entry.
- TARGET_DESC: NaV1.3 (Homo sapiens)
- Construct: expressed in transfected cells; host or cells: HEK293
- EXPERIMENT_SUMMARY: VIPR optical membrane potential assay with electrical stimulation, NaV1.3
- Format: cell-based
- SETTINGS: Table 9, NaV 1.3 receptors

> print(dat)
                                   compound  measured.metric     reading
1  COc1cccc(CN(C(=O)c2cnc(N3CCCCC3)nc2-c2ccccc2F)C(C)C)c1             IC50  2 to 10 µM

In: // IC50 lookup, key: COc1ccc(CCN(C)c2ncc(C(=O)N(C)CC(C)C)c(-c3ccc(C#N)cc3)n2)cc1OC
Out: > 10 µM

In: // IC50 lookup, key: Cc1ccc(Nc2ncc(C(=O)N(Cc3ccccc3)C(C)C)c(-c3ccccc3F)n2)cc1
Out: > 10 µM

In: // IC50 lookup, key: O=C(c1cnc(NCc2cccc(C(F)(F)F)c2)nc1-c1ccccc1F)N1CCOCC1
Out: > 10 µM

* * *

- TARGET_DESC: NaV1.8 (Homo sapiens, UniProt Q9Y5Y9)
- Sequence (Q9Y5Y9 whole entry): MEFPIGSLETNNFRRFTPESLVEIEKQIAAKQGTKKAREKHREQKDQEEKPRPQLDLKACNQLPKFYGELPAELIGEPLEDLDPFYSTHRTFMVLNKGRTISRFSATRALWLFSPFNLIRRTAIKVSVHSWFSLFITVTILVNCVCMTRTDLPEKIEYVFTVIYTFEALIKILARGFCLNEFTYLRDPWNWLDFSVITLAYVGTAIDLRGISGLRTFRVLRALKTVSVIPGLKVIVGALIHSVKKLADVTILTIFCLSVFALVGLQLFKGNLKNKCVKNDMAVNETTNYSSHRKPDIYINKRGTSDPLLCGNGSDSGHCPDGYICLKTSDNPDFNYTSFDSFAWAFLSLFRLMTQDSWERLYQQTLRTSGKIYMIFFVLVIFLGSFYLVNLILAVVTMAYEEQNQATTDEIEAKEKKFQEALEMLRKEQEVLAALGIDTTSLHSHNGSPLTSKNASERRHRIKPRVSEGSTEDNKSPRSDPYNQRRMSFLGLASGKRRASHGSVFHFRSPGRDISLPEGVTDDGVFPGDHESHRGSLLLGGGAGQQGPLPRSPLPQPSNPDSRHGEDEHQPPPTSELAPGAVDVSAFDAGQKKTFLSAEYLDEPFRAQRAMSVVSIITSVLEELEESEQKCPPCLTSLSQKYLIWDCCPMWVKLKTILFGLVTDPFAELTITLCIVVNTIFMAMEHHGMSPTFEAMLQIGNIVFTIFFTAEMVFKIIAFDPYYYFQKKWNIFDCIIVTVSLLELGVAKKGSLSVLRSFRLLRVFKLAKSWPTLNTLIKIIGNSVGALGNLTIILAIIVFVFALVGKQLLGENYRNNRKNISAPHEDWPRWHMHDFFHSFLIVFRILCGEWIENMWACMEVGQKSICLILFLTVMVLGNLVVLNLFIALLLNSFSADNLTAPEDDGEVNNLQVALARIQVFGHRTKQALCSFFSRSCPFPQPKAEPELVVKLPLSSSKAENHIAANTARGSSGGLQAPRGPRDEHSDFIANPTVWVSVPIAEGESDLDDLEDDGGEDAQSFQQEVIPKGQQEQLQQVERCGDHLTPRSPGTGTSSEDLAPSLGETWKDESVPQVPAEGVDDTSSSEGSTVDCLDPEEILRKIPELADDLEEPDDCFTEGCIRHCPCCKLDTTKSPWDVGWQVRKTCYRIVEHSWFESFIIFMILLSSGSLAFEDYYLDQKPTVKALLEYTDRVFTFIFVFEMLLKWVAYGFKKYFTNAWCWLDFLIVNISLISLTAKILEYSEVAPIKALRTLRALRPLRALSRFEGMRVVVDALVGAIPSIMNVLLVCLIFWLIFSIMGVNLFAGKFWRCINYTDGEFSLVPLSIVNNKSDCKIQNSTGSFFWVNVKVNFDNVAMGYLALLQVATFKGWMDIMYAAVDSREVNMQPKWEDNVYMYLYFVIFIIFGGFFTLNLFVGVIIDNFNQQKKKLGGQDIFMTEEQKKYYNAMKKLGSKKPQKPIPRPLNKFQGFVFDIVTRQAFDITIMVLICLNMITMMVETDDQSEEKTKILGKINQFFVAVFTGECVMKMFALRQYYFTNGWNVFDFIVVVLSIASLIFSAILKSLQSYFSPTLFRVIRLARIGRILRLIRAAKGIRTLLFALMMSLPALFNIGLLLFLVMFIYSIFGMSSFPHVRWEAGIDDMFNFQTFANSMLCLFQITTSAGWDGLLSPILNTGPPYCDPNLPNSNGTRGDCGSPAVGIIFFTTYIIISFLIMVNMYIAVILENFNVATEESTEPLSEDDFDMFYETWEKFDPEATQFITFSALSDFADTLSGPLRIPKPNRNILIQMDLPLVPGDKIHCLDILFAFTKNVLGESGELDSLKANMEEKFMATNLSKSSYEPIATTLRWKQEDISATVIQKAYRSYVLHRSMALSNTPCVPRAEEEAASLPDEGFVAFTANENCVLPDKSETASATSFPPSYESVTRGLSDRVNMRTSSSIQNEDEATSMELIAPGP
- EXPERIMENT_SUMMARY: VIPR optical membrane potential assay, NaV1.8 (other subtypes in an analogous mode)
- Format: cell-based
- SETTINGS: Table 9, NaV 1.8 receptors
MEASURED_METRIC: IC50

> print(dat)
                                   molecule                            target.desc  measured.metric  reading
1  CCNc1ncc(C(=O)N(Cc2ccccc2)C(C)C)c(-c2ccccc2F)n1 [compound 11]  NaV1.8 (Homo sapiens, UniProt Q9Y5Y9)             IC50  > 10 µM
2  O=C(c1cnc(N2CCOCC2)nc1-c1ccccc1F)N(Cc1ccccc1)C1CCC1 [compound 26]  NaV1.8 (Homo sapiens, UniProt Q9Y5Y9)             IC50  > 10 µM
3  O=C(c1cnc(N2CCSCC2)nc1-c1ccccc1F)N(Cc1ccccc1)C1CCCC1 [compound 157]  NaV1.8 (Homo sapiens, UniProt Q9Y5Y9)             IC50  > 10 µM
4  CC(C)N(Cc1ccc(N2CCCC2)cc1)C(=O)c1cnc(N2CCC3CCCCC3C2)nc1-c1ccccc1F (centres unmarked) [compound 137]  NaV1.8 (Homo sapiens, UniProt Q9Y5Y9)             IC50  > 10 µM

In: // IC50 lookup, key: CCC(COC)N(Cc1ccccc1)C(=O)c1c(C)nc(N2CCOCC2)nc1-c1ccccc1F (centres unmarked) [compound 49]
Out: > 10 µM

In: // IC50 lookup, key: CC(C)N(C(=O)c1cnc(N2CCCCC2)nc1-c1ccccc1Cl)c1cccc(C(C)(C)C)c1 [compound 3]
Out: > 10 µM

In: // IC50 lookup, key: CCN(CCC#N)c1ncc(C(=O)N(Cc2ccccc2)C(C)C)c(-c2ccccc2F)n1 [compound 96]
Out: > 10 µM

In: // IC50 lookup, key: COc1ccc(CN(C(=O)c2cnc(N3CCOCC3)nc2-c2ccccc2F)C2CC2)cc1 [compound 142]
Out: < 2 µM

In: // IC50 lookup, key: CC(C)N(Cc1ccc(C(C)(C)C)cc1)C(=O)c1cnc(N2CCCCC2)nc1-c1ccccc1Cl [compound 119]
Out: > 10 µM

In: // IC50 lookup, key: CCC(=O)C1(c2ccccc2)CCN(C(=O)c2cnc(N3CCOCC3)nc2-c2ccccc2F)CC1 [compound 57]
Out: > 10 µM

In: // IC50 lookup, key: COc1cccc(N(C(=O)c2cnc(N3CCC4CCCCC4C3)nc2-c2ccccc2F)C2CCOCC2)c1 (centres unmarked) [compound 68]
Out: > 10 µM

In: // IC50 lookup, key: CC(C)N(C(=O)c1cnc(N2CCOCC2)nc1-c1ccccc1F)C1CCSC1 (centres unmarked) [compound 172]
Out: > 10 µM
